# measurementTarget: human TrkA receptor (Homo sapiens (Human), UniProt P04629)
# Sequence (P04629 33-796): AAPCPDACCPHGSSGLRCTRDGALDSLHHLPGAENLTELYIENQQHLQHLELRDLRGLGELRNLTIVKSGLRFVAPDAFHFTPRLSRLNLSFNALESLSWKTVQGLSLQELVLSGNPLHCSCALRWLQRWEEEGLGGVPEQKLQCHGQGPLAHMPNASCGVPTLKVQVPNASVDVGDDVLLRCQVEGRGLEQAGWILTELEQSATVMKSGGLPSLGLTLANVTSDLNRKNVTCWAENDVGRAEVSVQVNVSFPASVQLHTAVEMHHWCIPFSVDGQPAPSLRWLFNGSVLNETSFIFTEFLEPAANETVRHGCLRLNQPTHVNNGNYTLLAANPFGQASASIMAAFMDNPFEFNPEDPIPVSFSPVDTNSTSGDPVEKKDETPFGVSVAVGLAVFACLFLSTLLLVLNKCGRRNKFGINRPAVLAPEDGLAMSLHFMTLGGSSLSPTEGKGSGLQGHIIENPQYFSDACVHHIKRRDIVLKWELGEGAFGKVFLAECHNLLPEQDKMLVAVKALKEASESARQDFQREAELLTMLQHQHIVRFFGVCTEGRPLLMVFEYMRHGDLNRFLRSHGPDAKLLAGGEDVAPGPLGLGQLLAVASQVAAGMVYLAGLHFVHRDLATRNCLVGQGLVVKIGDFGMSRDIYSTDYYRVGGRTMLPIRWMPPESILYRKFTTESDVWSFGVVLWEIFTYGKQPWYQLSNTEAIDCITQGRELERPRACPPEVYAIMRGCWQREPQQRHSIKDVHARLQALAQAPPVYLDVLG
# assayMethodText: TrkA functional activity, DiscoverX PathHunter assay (NGF-stimulated U2OS cells)
# condition: U2OS cells expressing human TrkA-Prolink, Shc1-EA and p75NTR; compound 1 h, then NGF (~80% of maximal response) 3 h; luminescence
measuredProperty: IC50 (nM)

1: Cn1ccc(-c2cc(C(=O)Nc3cn4c(C(=O)O)ncc4nc3-c3ccccc3)c(F)cc2C(F)(F)F)n1
2: O=C(Nc1c(-c2ccccc2)ccc2c(CO)cnn12)c1cc(-c2ncccn2)c(C(F)(F)F)cc1F
Endpoint returns the identifier whose IC50 is numerically larger, either 1 or 2 . Choose, then provide that item's label.
1
(1: 32 nM, 2: 2.1 nM)
